- systemUnderTest: T1, Ebola virus GP with a C-terminal polyhistidine tag (Sino Biologicals, Catalog #40442-V08B1) (Ebola virus, UniProt P87666 33-650)
- T1 construct: also called EbolaGP.his; Ebola virus GP.his
- testName: SPR 25C, mAb captured
Item-by-item account of Kd
Param answer (str): number followed by unit.

Inquiry: # lookup: Kd of H1H17151P (antibody, V domains shown) VH: EVQLVESGGGLVQPGGSLRLSCAASGFTFSSYAMNWVRQAPGKGLEWVSVISGSGGWRNYADSVKGRITISRDNSKNTLYLQMNNLRAEDTAVYYCAKDRGATFGVVILGPPYYGMDVWGQGTTVTVSS VL: DIQMTQSPSSLSASVRDRVTITCRASQSISTYLNWYQQKPGKAPKLLIYAASSLQSGVPSRFSGSGSGTGFTLTISSLQPEDFATYYCQQSYSIPYTFGQGTKLEIK
Reply text: 7.49 nM

Inquiry: # lookup: Kd of H1H17199P (antibody, V domains shown) VH: EVQLVESGGGLVQPGGSLRLSCAASGFTFSDHYMVWVRQAPGKGLEWVGRTRNKANSYSTEYAASVKGRFTISRDDSKKSLYLQMNSLKTEDTAVYYCARGGETLWFGESNYGMDVWGQGTTVTVSS VL: EIVLTQSPDTLSLSPGERATLSCRASQSVSSTYLAWYQQKPGQAPSLLIYGASSRATGIPDRFSGSGSGTDFTLTISRLEPEDFAVYYCQQYGRSPLTFGGGTKVEIK
Reply text: 18.9 nM

Inquiry: # lookup: Kd of H1H17193P (antibody, V domains shown) VH: QVQLVESGGGVVQPGRSLRLSCAASGFTFSSYGIHWVRQAPGKWLEWVAFIWFDGSNKYYADSVKGRFTISRDDSKNTLYLQMNSLRAEDTAVYYCARDGEIFGVLISSDAFDIWGQGTMVTVSS VL: DIQMTQSPSSLSASVGDRVTITCRASRGIRNDLGWFQQKPGKAPKRLIYVASNLQSGVPSRFSGSGSGTEFTLTISSLQPEDFATYYCLQHNSYPITFGQGTRLEIK
Reply text: 23.6 nM

Inquiry: # lookup: Kd of H1M17354N (antibody, V domains shown, also called HCAF05C08-22) VH: QVQLVQSGAEVKKPGASVKVSCKASGYTFTSYYMHWVRQAPGQGLEWLGIINPSGGSTSYAQKFQGRVTMTRDTSTSTVYMELSSLRSEDTAVYYCARETGEAGEVFNYWGQGTQVTVSS VL: DIQMTQSPSSLSASVGDRVTITCRASQIISRYLNWYQHKPGKAPKVLIYAASTLQSGVPSRFSGSGSGTDFTLTISSLQPEDFATYYCQQSYSTPPITFGQGTRLEIK
Reply text: 63.9 nM

Inquiry: # lookup: Kd of H1H17142P (antibody, V domains shown) VH: EVQLVESGGGLVQPGGSLRLSCAASGFTFSSYAMTWVRQAPGKGLEWVSSISGSGTSTYYADSVKGRFTISRDNSKNTLYLQMNSLRAEDTALYYCSRDIYTWNFLSLIGGMDVWGQGTTVTVSS VL: DIQMTQSPSSLSASVGDRVTITCRASQGIRIDLGWYQQKPGKAPNRLIYAASSLQGGVPSRFSGSGSGTEFTLTISSLQPEDFATYYCLQQNSYPWTFGQGTKVEIK
Reply text: 1.41 nM
